assay.target: MAGL (Homo sapiens)
Sequence (Q99685 whole entry, species assumed): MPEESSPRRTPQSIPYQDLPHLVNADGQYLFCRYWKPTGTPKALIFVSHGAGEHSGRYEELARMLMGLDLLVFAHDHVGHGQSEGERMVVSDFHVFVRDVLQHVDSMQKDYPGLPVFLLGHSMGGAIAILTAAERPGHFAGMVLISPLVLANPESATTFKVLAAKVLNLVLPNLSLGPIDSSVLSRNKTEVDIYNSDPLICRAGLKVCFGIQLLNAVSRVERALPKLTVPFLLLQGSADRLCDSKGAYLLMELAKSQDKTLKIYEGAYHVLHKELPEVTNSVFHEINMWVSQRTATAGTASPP
quantity: pIC50
Entry type: numeric. Quantity: pIC50, the -log10 of concentration in molar units.

// known answers, use as guide
O=C1CO[C@H]2CCN(C(=O)N3CCC(Cc4ccc(C(F)(F)F)c(-c5ccccc5)c4)CC3)C[C@H]2N1 :: 8.34
Cc1c(CC2CCN(C(=O)N3CC[C@@H]4OCC(=O)N[C@@H]4C3)CC2)cncc1C1CC1 :: 6.92
O=C1CO[C@H]2CCN(C(=O)N3CC(c4cccc(OC(F)(F)F)c4)C3)C[C@H]2N1 :: 7.36

Ask: Query: pIC50; subject: O=C1CO[C@H]2CCN(C(=O)N3CC(c4ccc(OCC5CC5)cc4)C3)C[C@H]2N1
Result: 8.06

Ask: # pIC50 lookup, item O=C1CO[C@H]2CCN(C(=O)N3CCC(c4ccnnc4C(F)(F)F)CC3)C[C@H]2N1
Result: 7.04

Ask: I have this compound here, O=C1CO[C@H]2CCN(C(=O)N3CC(OCc4ccc(C(F)(F)F)cn4)C3)C[C@H]2N1 , and I need its recorded pIC50.
Result: 6.80

Ask: For O=C1CO[C@H]2CCN(C(=O)N3CC(c4ccc(OC5CCCC5)cc4)C3)C[C@H]2N1 , what is its reported pIC50?
Result: 9.22

Ask: Need pIC50, item O=C1CO[C@H]2CCN(C(=O)[C@H]3C[C@H](OCc4ccc(C(F)(F)F)cc4Cl)C3)C[C@H]2N1
Result: 6.58

Ask: So what's the measured pIC50 for this one? O=C1CO[C@H]2CCN(C(=O)N3CCC(OCc4ccc(C(F)(F)F)cc4Cl)CC3)C[C@H]2N1
Result: 8.28

Ask: What measured pIC50 goes with O=C1CO[C@H]2CCN(C(=O)N3CC(c4nc(-c5ccc(Cl)cc5C(F)(F)F)no4)C3)C[C@H]2N1 ?
Result: 7.63

----------
assay.target: MAGL (Homo sapiens)
assay.remarks: 2-AG assay (MAGL inhibitory activity, hydrolysis of 2-arachidonoylglycerol followed by mass spectrometry)
Assay type: biochemical
particulars: 15 min preincubation at RT, 8 μM 2-arachidonoylglycerol, 30 min at RT, arachidonic acid by MS
quantity: IC50 (nM)
Give just the numeric value; nM need not be written.

Solved entries (count: 5):
CC(C)Oc1ccc(C2CN(C(=O)N3CC[C@@H]4OCC(=O)N[C@@H]4C3)C2)cc1 [Example 4] :: 7.1
O=C1CO[C@H]2CCN(C(=O)C3CC(OCc4ccc(C(F)(F)F)cc4Cl)C3)C[C@H]2N1 (stereo partly drawn) [Example 41] :: 774
O=C1CO[C@H]2CCN(C(=O)N3CC(c4ccc(C5CCOC5)cc4)C3)C[C@H]2N1 (single isomer, unassigned) [Example 2] :: 42
O=C1CO[C@H]2CCN(C(=O)N3CC(c4ccc(C5CC(F)(F)C5)cc4)C3)C[C@H]2N1 [Example 6] :: 2.9
O=C1CO[C@H]2CCN(C(=O)N3CC(c4nsc(-c5ccc(Cl)cc5Cl)n4)C3)C[C@H]2N1 [Example 7] :: 9.1

Ask: Checklist item: IC50 tested on MAGL (Homo sapiens), entry CC1(C)CCc2cc(C3CN(C(=O)N4CC[C@@H]5OCC(=O)N[C@@H]5C4)C3)ccc2O1 [Example 10] , value?
Result: 6

Ask: Which measured IC50 belongs to O=C1CO[C@H]2CCN(C(=O)N3CC(c4nc(-c5ccc(Cl)cc5Cl)no4)C3)C[C@H]2N1 [Example 16] , tested on MAGL (Homo sapiens)?
Result: 24.5

Ask: Value wanted: IC50 (MAGL (Homo sapiens)) of entry CC(Oc1ccc(C(F)(F)F)cc1Cl)C1CN(C(=O)N2CC[C@H]3OCC(=O)N[C@H]3C2)C1 (stereo partly drawn) [Example 46]
Result: 225

Ask: Test system MAGL (Homo sapiens); read-out IC50; what value for O=C1CO[C@H]2CCN(C(=O)N3CCC(Cc4ccc(C(F)(F)F)cc4C(F)(F)F)CC3)C[C@H]2N1 [Example 36] ?
Result: 9.4

Ask: Form field - read-out: IC50; system: MAGL (Homo sapiens); submitted item: O=C1CO[C@H]2CCN(C(=O)N3CC(c4cn(-c5ccc(Cl)cc5Cl)cn4)C3)C[C@H]2N1 [Example 8]
Result: 38.8

Ask: Provide the documented IC50 with MAGL (Homo sapiens) as the system for O=C1CO[C@H]2CCN(C(=O)N3CCC(OCc4ccc(C(F)(F)F)cc4)CC3)C[C@H]2N1 [Example 24]
Result: 62.1

Ask: Please state recorded IC50 (tested on MAGL (Homo sapiens)) of O=C1CO[C@H]2CCN(C(=O)N3CC(OCc4ccccc4OC(F)(F)F)C3)C[C@H]2N1 [Example 32]
Result: 22.5

Ask: Form field - read-out: IC50; system: MAGL (Homo sapiens); submitted item: CC(C)(Oc1ccc(C2CN(C(=O)N3CC[C@@H]4OCC(=O)N[C@@H]4C3)C2)cc1)C(F)(F)F [Example 12]
Result: 0.3

Ask: What reported IC50 corresponds to O=C1CO[C@H]2CCN(C(=O)N3CC(OCc4ccc(Cl)cc4OC(F)(F)F)C3)C[C@H]2N1 [Example 33] on MAGL (Homo sapiens)?
Result: 5.9

Ask: Write down the reported IC50 of O=C1CO[C@H]2CCN(C(=O)N3CC(OCc4cc(Cl)cc(Cl)c4)C3)C[C@H]2N1 [Example 22] , test system: MAGL (Homo sapiens).
Result: 13.4
